Listing of recorded GI50 by entry.
- assayedTarget: BaF3-LR_TM_CS cells (Homo sapiens, UniProt P00533, T790M/C797S/L858R, cells depend on it)
- Sequence (P00533 whole entry T790M/C797S/L858R): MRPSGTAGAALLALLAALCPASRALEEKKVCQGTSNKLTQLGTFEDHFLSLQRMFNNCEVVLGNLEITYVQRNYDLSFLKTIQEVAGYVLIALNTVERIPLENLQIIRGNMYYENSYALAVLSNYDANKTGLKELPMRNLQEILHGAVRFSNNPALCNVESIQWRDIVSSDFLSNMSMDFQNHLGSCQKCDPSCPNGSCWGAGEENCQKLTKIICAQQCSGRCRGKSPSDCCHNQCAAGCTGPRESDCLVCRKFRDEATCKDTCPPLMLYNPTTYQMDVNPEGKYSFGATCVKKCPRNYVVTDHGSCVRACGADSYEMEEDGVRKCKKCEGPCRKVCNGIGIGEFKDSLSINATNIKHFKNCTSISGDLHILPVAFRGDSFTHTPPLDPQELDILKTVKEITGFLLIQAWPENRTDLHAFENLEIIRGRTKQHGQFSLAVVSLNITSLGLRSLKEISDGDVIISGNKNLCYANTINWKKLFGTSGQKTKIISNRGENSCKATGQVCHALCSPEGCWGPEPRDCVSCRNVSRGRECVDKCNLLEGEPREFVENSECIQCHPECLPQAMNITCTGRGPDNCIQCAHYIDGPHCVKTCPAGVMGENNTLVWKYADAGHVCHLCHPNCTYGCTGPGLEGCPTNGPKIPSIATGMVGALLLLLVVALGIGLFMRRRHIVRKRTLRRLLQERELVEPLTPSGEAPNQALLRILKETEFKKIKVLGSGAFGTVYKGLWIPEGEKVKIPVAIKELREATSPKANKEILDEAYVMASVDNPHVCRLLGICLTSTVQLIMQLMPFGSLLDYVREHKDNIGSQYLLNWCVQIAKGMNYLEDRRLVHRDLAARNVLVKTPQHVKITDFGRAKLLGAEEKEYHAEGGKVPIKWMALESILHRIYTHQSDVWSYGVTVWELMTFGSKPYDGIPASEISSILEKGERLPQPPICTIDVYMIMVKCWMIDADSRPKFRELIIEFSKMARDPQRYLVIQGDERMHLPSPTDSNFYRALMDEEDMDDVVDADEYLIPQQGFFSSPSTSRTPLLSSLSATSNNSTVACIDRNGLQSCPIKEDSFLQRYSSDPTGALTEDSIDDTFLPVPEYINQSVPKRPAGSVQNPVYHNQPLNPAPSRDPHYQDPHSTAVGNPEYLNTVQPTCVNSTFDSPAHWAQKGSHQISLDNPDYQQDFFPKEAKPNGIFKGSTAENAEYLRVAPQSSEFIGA
- assaySummary: Cell antiproliferation assay (CellTiter-Glo), BaF3-LR_TM_CS
- Type: cell-based
- assaySetup: 48 h treatment, read-out: BaF3-LR_TM_CS IC50

smilesEntry	assayedTarget	GI50 / nM
COc1cc(N2CC3(CN(C)C3)C2)c(F)cc1Nc1nc(Nc2cccc3c2N(S(C)(=O)=O)CC3)c2cc[nH]c2n1	BaF3-LR_TM_CS cells (Homo sapiens, UniProt P00533, T790M/C797S/L858R, cells depend on it)	240
COc1cc(C2CCN(C)CC2)c(C)cc1Nc1nc(Nc2cccc3c2N(S(C)(=O)=O)CC3)c2cc[nH]c2n1	BaF3-LR_TM_CS cells (Homo sapiens, UniProt P00533, T790M/C797S/L858R, cells depend on it)	399
CN(C)C1CCN(c2ccc(Nc3ncc(Cl)c(Nc4cccc5c4N(S(C)(=O)=O)CC5)n3)c3c2OCO3)CC1	BaF3-LR_TM_CS cells (Homo sapiens, UniProt P00533, T790M/C797S/L858R, cells depend on it)	35.9
COc1cc(N2CCC(N3CCN(C)CC3)CC2)ccc1Nc1ncc(C#N)c(Nc2cccc3c2N(S(C)(=O)=O)CC3)n1	BaF3-LR_TM_CS cells (Homo sapiens, UniProt P00533, T790M/C797S/L858R, cells depend on it)	225
COc1cc(N2CCC(N3CCN(C)CC3)CC2)ccc1Nc1ncc(C)c(Nc2cccc3c2N(S(C)(=O)=O)CC3)n1	BaF3-LR_TM_CS cells (Homo sapiens, UniProt P00533, T790M/C797S/L858R, cells depend on it)	222
Cc1cc(Nc2nc(Nc3cccc4c3N(S(C)(=O)=O)CC4)c3cc[nH]c3n2)c(OC(C)C)cc1N1CCC(N2CCN(C)CC2)CC1	BaF3-LR_TM_CS cells (Homo sapiens, UniProt P00533, T790M/C797S/L858R, cells depend on it)	504

---

pIC50: recorded values
- assayedTarget: EGFR(Dell9_T790M_C797S) (aa 669-1210, in house) (Homo sapiens, UniProt P00533, T790M/C797S, form not given)
- Sequence (P00533 with tags, fused parts or gaps DEL746-750/T790M/C797S, form open): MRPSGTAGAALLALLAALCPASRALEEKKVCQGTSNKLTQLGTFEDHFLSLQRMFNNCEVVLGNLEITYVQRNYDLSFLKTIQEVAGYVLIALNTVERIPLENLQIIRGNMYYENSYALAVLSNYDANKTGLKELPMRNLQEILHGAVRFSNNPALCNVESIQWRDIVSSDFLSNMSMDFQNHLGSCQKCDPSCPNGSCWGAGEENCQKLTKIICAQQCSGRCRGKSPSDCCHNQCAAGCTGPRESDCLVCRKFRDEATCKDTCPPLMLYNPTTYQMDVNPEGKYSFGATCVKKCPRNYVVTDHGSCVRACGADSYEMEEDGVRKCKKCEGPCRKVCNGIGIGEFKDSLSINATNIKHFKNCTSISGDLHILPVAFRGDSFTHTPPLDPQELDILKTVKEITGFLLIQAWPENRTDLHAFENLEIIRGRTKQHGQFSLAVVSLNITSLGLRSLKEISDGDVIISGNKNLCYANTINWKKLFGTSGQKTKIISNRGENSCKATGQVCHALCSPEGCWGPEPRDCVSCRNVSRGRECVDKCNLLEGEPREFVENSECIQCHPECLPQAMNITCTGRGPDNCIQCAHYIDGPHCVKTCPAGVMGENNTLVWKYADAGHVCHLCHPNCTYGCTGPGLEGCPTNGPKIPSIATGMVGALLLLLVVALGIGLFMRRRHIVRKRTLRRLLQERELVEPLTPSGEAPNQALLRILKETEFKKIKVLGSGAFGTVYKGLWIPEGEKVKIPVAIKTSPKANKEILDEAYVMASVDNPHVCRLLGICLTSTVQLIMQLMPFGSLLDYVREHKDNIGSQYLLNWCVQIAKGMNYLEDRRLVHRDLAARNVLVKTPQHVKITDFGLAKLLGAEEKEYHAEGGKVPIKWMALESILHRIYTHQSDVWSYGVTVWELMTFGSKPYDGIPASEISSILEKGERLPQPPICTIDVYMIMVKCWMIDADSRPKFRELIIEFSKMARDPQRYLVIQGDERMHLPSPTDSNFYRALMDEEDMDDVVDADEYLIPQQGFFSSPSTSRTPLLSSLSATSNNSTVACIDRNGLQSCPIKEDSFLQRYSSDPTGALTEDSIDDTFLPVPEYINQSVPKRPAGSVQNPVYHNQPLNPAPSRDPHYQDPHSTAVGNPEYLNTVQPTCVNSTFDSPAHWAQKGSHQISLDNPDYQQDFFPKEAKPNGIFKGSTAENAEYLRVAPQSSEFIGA
- assaySummary: Biochemical EGFR inhibition assay (TR-FRET), Del19/T790M/C797S mutant
- assaySetup: ATP at Km, 15 min pre-incubation, 60 min reaction; read-out: Del_TM_CS (Km ATP) IC50
pIC50: −log10 of the molar value.
readoutLabel: pIC50

compound	readoutLabel	experimentalResult
COc1cc(N2CCC(N3CCN(C)CC3)CC2)ccc1Nc1ncc(Br)c(Nc2cccc3c2N(S(C)(=O)=O)C2(CC2)C3)n1 [Example 136]	pIC50	9.05
CNS(=O)(=O)N1CCc2cccc(Nc3nc(Nc4ccc(N5CCC(N6CCN(C)CC6)CC5)cc4OC)ncc3Cl)c21 [Example 14]	pIC50	9.23
CN1CCN(c2c(F)cc(Nc3ncc(Br)c(Nc4cccc5c4N(S(C)(=O)=O)CC5)n3)c3c2CCO3)CC1 [Example 58]	pIC50	8.80
CN1CCN(C2CCN(c3ccc(Nc4nc(Nc5cccc6c5N(S(C)(=O)=O)CC6)c5cc[nH]c5n4)c4c3OCO4)CC2)CC1 [Example 182]	pIC50	8.82

---

- assayedTarget: EGFR (aa668-1210, Invitrogen) (Homo sapiens)
- Sequence (P00533 668-1210): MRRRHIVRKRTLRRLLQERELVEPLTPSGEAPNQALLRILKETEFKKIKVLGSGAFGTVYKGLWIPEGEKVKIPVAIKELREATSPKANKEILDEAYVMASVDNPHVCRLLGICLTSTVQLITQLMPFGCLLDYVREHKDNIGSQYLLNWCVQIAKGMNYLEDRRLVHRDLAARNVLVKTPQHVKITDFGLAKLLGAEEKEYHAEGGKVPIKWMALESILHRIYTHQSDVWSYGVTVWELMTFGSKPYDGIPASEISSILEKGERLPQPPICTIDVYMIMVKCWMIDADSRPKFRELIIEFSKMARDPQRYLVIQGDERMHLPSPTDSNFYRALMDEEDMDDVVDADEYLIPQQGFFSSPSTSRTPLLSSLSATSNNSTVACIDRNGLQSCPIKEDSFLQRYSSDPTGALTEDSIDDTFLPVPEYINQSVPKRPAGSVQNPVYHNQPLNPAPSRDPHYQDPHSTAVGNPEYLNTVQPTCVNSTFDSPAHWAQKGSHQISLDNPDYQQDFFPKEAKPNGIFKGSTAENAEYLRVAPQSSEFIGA
Exam item: assign Y to entries whose IC50 is below 0.04 µM and N to entries at or above 0.04 µM. Note that a value of exactly 0.04 µM receives N.

smilesEntry	answerLabel
COc1cc(C2CCN(CCO)CC2)c(C)cc1Nc1nc(Nc2cccc3c2N(S(C)(=O)=O)CC3)c2cc[nH]c2n1	N
COc1cc(N2CCC(N3CCN(C)CC3=O)CC2)ccc1Nc1nc(Nc2cccc3c2N(S(C)(=O)=O)CC3)c2cc[nH]c2n1	Y
CN1CCN(C2CCN(c3c(F)cc(Nc4ncc(Br)c(Nc5cccc6c5N(S(C)(=O)=O)CC6)n4)c4c3CCO4)CC2)CC1	Y
COc1cc(N2CCCN(C)CC2)c(C)cc1Nc1nc(Nc2cccc3c2N(S(C)(=O)=O)CC3)c2cc[nH]c2n1	N
COc1cc(N2CCC(N(C)C)CC2)c(C)cc1Nc1ncc(Br)c(Nc2cccc3c2N(S(C)(=O)=O)CC3)n1	Y
COc1cc(N2CCC(N3CCN(C)CC3)CC2)ccc1Nc1ncc(Br)c(Nc2cccc3c2N(S(C)(=O)=O)CC32CC2)n1	Y
COc1cc(N2CCC(N3CCN(C)CC3)CC2)c(C)cc1Nc1ncc(Cl)c(Nc2cccc3c2N(S(C)(=O)=O)CC3)n1	Y
CN1CCN(C2CCN(c3ccc(Nc4nc(Nc5cccc6c5N(S(C)(=O)=O)CC6)c5cc[nH]c5n4)cc3)CC2)CC1	Y
COc1cc(N2CCC(N3CCN(C)CC3)CC2)ccc1Nc1ncc(Br)c(Nc2cccc3c2N(S(C)(=O)=O)CC3)n1	Y
CN1CCN(C2CCN(c3ccc(Nc4nc(Nc5cccc6c5N(S(C)(=O)=O)CC6)c5cc[nH]c5n4)cn3)CC2)CC1	N
CCN1CCN(C2CCN(c3c(F)cc(Nc4nc(Nc5cccc6c5N(S(C)(=O)=O)CC6)c5cc[nH]c5n4)cc3F)CC2)CC1	N
COc1cc(N2CCC(N3CCN(C)CC3)CC2)c(C)cc1Nc1ncc(Br)c(Nc2cccc3c2N(S(C)(=O)=O)CC3)n1	Y
COc1cc(N2CCC(N3CCN(C)CC3)CC2)ccc1Nc1ncc(Cl)c(Nc2cccc3c2N(S(=O)(=O)CC2CC(F)(F)C2)CC3)n1	Y
COc1cc(N2CCC(N(C)C)CC2)ccc1Nc1ncc(Cl)c(Nc2cccc3c2N(S(C)(=O)=O)CC3)n1	Y
COc1cc(N2CCC(N3CCN(C)CC3)CC2)ccc1Nc1nc(Nc2cccc3c2N(S(C)(=O)=O)CC3)c2sccc2n1	N
Cc1cc(Nc2nc(Nc3cccc4c3N(S(C)(=O)=O)CC4)c3cc[nH]c3n2)c(OC(C)C)cc1N1CCC(N2CCN(C)CC2)CC1	N
CCN1CCN(C2CCN(c3cc(F)c(Nc4ncc(Br)c(Nc5cccc6c5N(S(C)(=O)=O)CC6)n4)cc3F)CC2)CC1	Y
COc1cc(N2C[C@H]3CN(C)C[C@H]3C2)c(C)cc1Nc1nc(Nc2cccc3c2N(S(C)(=O)=O)CC3)c2cc[nH]c2n1	N
CN(C)C1CCN(c2ccc(Nc3ncc(Br)c(Nc4cccc5c4N(S(C)(=O)=O)CC5)n3)c3c2OCCO3)CC1	Y
COc1cc(N2CCC(N3CCN(C)CC3)CC2)ccc1Nc1ncc(Cl)c(Nc2cccc3c2N(S(C)(=O)=O)CC32CC2)n1	Y
COc1cc(N2CCC(N3CCN(C)CC3)CC2)ccc1Nc1nc(Nc2cccc3c2N(S(C)(=O)=O)CC3)c2cc[nH]c2n1	N

---

- assayedTarget: BaF3-WT cells (Homo sapiens, UniProt P00533)
- Sequence (P00533 whole entry, change not shown): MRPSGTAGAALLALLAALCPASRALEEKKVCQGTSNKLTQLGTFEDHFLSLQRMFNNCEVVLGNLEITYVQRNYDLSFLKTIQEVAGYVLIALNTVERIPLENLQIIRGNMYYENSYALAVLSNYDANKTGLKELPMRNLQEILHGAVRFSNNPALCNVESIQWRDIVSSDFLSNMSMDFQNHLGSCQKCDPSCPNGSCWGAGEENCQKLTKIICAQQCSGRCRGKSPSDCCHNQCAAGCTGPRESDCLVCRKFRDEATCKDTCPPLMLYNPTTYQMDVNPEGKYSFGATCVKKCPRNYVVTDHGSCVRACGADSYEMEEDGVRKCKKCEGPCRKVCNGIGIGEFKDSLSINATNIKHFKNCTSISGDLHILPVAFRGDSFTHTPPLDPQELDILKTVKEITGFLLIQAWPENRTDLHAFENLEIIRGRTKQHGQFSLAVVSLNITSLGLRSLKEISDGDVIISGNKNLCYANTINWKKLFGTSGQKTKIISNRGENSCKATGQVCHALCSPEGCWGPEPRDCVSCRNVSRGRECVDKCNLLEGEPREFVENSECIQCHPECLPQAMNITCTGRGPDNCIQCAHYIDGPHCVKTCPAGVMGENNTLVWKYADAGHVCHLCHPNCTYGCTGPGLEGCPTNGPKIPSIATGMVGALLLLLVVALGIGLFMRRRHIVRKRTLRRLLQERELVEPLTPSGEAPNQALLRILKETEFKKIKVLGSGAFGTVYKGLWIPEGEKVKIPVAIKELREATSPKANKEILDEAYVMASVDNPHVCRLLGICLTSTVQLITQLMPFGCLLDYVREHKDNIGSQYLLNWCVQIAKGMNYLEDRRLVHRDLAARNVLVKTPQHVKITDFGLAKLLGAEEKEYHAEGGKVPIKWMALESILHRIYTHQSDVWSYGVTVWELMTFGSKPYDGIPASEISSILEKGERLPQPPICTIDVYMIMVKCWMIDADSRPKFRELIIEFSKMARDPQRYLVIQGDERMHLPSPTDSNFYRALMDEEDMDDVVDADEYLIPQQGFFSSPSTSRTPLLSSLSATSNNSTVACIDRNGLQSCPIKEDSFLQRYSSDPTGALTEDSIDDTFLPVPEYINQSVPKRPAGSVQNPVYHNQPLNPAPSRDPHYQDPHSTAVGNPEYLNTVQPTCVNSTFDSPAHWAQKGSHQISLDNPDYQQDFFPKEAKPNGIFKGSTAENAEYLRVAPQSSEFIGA
- assaySummary: Cell antiproliferation assay (CellTiter-Glo), BaF3-WT
- Assay type: cell-based
- assaySetup: 48 h treatment, read-out: BaF3-WT IC50
Reported GI50 values are given for each entry in this list.

compound	GI50 [nM]
CCN1CCN(C2CCN(c3ccc(Nc4nc(Nc5cccc6c5N(S(C)(=O)=O)CC6)c5cn[nH]c5n4)cc3F)CC2)CC1 [Example 76]	987
CCc1cc(Nc2nc(Nc3cccc4c3N(S(C)(=O)=O)CC4)c3cc[nH]c3n2)c(OC)cc1N1CCC(N2CCN(C)CC2)CC1 [Example 94]	640
COc1cc(N2CCC(N3CCN(C)CC3)CC2)ccc1Nc1ncc(Cl)c(Nc2cccc3c2N(S(=O)(=O)C2CC2)CC3)n1 [Example 7]	457
COc1cc(N2CC3(CN(C)C3)C2)c(F)cc1Nc1nc(Nc2cccc3c2N(S(C)(=O)=O)CC3)c2cc[nH]c2n1 [Example 97]	1930
COc1cc(N2CCC3(CC2)CN(C)C3)c(C)cc1Nc1nc(Nc2cccc3c2N(S(C)(=O)=O)CC3)c2cc[nH]c2n1 [Example 100]	1590
COc1cc(N2CCCN(C)CC2)c(C)cc1Nc1nc(Nc2cccc3c2N(S(C)(=O)=O)CC3)c2cc[nH]c2n1 [Example 101]	1410
CNS(=O)(=O)N1CCc2cccc(Nc3nc(Nc4ccc(N5CCC(N6CCN(C)CC6)CC5)cc4OC)ncc3Cl)c21 [Example 14]	193
COc1cc(N2CCC(N3CCN(C)CC3)CC2)ccc1Nc1nc(Nc2cccc3c2N(S(C)(=O)=O)CC3)c2sccc2n1 [Example 75]	1200
CCCS(=O)(=O)N1CCc2cccc(Nc3nc(Nc4ccc(N5CCC(N6CCN(C)CC6)CC5)cc4OC)ncc3Cl)c21 [Example 6]	1850
COc1cc(N2CCC(N3CCN(C)CC3)CC2)c(C)cc1Nc1ncc(Cl)c(Nc2cccc3c2N(S(C)(=O)=O)CC3)n1 [Example 39]	500
CCN1CCN(C2CCN(c3ccc(Nc4nc(Nc5cccc6c5N(S(C)(=O)=O)CC6)c5cc[nH]c5n4)cc3F)CC2)CC1 [Example 77]	388
CCN1CCN(C2CCN(c3ccc(Nc4nc(Nc5ccc(F)c6c5N(S(C)(=O)=O)CC65CCC5)c5cc[nH]c5n4)cc3F)CC2)CC1 [Example 83]	1860
COc1cc(C2CCN(CCO)CC2)c(C)cc1Nc1nc(Nc2cccc3c2N(S(C)(=O)=O)CC3)c2cc[nH]c2n1 [Example 108]	2140
COc1cc(N2CCC(N3CCN(C)CC3)CC2)ccc1Nc1ncc(Cl)c(Nc2cccc3c2N(C(C)=O)CC3)n1 [Example 17]	1710
COc1cc(N2CCC(N3CCN(C)CC3)CC2)c(C)cc1Nc1nc(Nc2cccc3c2N(S(C)(=O)=O)CC3)c2cc[nH]c2n1 [Example 91]	949
CCc1cc(Nc2ncc(Cl)c(Nc3cccc4c3N(S(C)(=O)=O)CC4)n2)c(OC)cc1N1CCC(N2CCN(C)CC2)CC1 [Example 41]	610
CN1CCN(c2ccc(Nc3nc(Nc4cccc5c4N(S(C)(=O)=O)CC5)c4cc[nH]c4n3)c(F)c2F)CC1 [Example 85]	274
COc1cc(N2CCC(N3CCN(C)CC3)CC2)ccc1Nc1ncc(C(F)(F)F)c(Nc2cccc3c2N(S(C)(=O)=O)CC3)n1 [Example 31]	522
COc1cc(N2CCC(N3CCN(C)CC3)CC2)ccc1Nc1nc(Nc2cccc3c2N(S(C)(=O)=O)CC3)c2c(Cl)c[nH]c2n1 [Example 73]	853
COc1cc(N2CCC(N3CCN(C)CC3)CC2)ccc1Nc1nc(Nc2cccc3c2N(S(C)(=O)=O)CC3)c2[nH]ccc2n1 [Example 71]	2210

Data credit: patent US20260167619A2
